Provenance of the data: ChEMBL document CHEMBL2057068

- SUBJECT OF TEST: Subtilisin-like protease 1 (Plasmodium falciparum) (UniProt O61142)
- Sequence (whole entry): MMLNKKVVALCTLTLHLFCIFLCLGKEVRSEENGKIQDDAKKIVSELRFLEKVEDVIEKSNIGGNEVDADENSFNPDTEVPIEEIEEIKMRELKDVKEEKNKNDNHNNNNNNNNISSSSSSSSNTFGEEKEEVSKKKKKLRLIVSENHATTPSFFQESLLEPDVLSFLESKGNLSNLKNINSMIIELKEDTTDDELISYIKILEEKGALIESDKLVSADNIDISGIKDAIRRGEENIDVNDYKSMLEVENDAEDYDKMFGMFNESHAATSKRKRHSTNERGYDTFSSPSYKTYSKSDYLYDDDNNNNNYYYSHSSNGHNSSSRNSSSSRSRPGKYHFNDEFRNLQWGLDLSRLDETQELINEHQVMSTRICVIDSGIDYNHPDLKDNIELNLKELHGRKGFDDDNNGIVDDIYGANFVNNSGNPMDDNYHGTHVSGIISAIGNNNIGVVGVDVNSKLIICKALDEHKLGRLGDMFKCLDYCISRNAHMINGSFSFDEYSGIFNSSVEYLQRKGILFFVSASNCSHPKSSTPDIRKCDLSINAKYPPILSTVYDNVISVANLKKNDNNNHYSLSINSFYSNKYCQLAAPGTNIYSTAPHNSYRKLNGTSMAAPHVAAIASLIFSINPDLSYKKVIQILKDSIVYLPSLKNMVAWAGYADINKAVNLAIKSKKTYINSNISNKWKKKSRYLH
- EXPERIMENT SUMMARY: Inhibition of Plasmodium falciparum SUB1 assessed as residual hydrolytic activity at 50 uM by fluorimetric assay
RECORDED ENDPOINT: Activity (%)

Solved entries:
# MOLECULE, RESULT
records = [
    ("C/C(=N\\Nc1cc(C)nc2cc3c(cc12)OCO3)c1ccc([N+](=O)[O-])cc1", 60.3),
    ("CC(=O)Nc1ccc(/C=N/Nc2cc(C)nc3cc4c(cc23)OCO4)cc1", 70.9),
    ("Cc1cc(NNC(=O)c2ccc(C#N)cc2)c2cc3c(cc2n1)OCO3", 85.5),
    ("O=[N+]([O-])c1ccc(C=NNc2nc3ccccc3[nH]2)cc1", 43.1),
    ("O=[N+]([O-])c1ccc(/C=N/Nc2ccncc2)cc1", 84.6),
]

1. Cc1cc(N/N=C/c2ccccc2C(F)(F)F)c2cc3c(cc2n1)OCO3
2. Cc1cc(NNC(=O)c2ccc([N+](=O)[O-])cc2)c2cc3c(cc2n1)OCO3
Between 1 and 2 , which one shows the larger Activity value? Respond using the label that marks the chosen record.
1
(1: 100%, 2: 64.4%)

1. Cc1cc(N/N=C/c2ccc(/C(N)=N/O)cc2)c2cc3c(cc2n1)OCO3
2. O=C(NNc1nc2ccccc2[nH]1)c1ccc([N+](=O)[O-])cc1
Between 1 and 2 , which one shows the larger Activity value? Respond using the label that marks the chosen record.
1

A. O=[N+]([O-])c1ccc(/C=N/Nc2c3c(nc4ccccc24)CCCC3)cc1
B. Cc1cc(N/N=C/c2ccc(C(F)(F)F)cc2)c2cc3c(cc2n1)OCO3
C. Cc1cc(N/N=C/c2ccc([N+](=O)[O-])cc2)c2cc3c(cc2n1)OCO3
Write the entries in order, lowest recorded Activity first. Reply with the item labels sorted in the order that was asked for.
C, A, B
(C: 27.2%, A: 55.8%, B: 86.1%)

====

- SUBJECT OF TEST: UniProtKB O61142
- Sequence (O61142 whole entry): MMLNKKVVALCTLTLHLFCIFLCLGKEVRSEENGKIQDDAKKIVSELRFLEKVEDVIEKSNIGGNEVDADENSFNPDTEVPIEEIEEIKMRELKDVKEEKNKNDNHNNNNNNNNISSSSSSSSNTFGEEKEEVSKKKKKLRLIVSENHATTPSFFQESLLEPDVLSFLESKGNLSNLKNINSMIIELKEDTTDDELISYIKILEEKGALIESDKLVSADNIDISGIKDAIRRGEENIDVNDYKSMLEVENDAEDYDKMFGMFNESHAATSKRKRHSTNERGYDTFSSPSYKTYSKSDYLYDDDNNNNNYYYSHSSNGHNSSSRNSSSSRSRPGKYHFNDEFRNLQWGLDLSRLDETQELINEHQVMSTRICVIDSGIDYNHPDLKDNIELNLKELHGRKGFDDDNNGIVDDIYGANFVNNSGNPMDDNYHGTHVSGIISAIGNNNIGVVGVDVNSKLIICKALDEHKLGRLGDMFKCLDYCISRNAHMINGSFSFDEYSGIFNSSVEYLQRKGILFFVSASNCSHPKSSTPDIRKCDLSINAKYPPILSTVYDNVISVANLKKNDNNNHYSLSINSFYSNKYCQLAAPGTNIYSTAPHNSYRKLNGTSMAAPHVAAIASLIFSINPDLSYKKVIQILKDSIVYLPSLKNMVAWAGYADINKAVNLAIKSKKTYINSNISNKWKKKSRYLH
RECORDED ENDPOINT: pIC50
Would you please state pIC50, meaning minus log10 of the concentration in mol/L, as a bare number?

# pIC50 lookup, item Cc1cc(N/N=C/c2ccccc2[N+](=O)[O-])c2cc3c(cc2n1)OCO3
4.40

====

- SUBJECT OF TEST: UniProt:O61142
- EXPERIMENT SUMMARY: Inhibition of Plasmodium falciparum SUB1 assessed as residual hydrolytic activity at 50 uM by fluorimetric assay
RECORDED ENDPOINT: Activity (%)

# MOL, SUBJECT OF TEST, Activity, %
records = [
    ("COC(=O)c1ccc(/C=N/Nc2cc(C)nc3cc4c(cc23)OCO4)cc1", "UniProt:O61142", 85),
]

1. Cc1cc(N/N=C/c2cccc([N+](=O)[O-])c2)c2cc3c(cc2n1)OCO3
2. Cc1cc(N/N=C/c2ccc(C#N)cc2)c2cc3c(cc2n1)OCO3
Which record shows the lower Activity: the first, 1 , or the second, 2 ? Respond using the label that marks the chosen record.
2
(2: 29.2%, 1: 97.2%)

====

- SUBJECT OF TEST: UniProt:O61142
- EXPERIMENT SUMMARY: Inhibition of Plasmodium falciparum SUB1 assessed as residual hydrolytic activity at 50 uM by fluorimetric assay
RECORDED ENDPOINT: Activity (%)

# MOLECULE, Activity, %
rows = [
    ("CSc1ccc(/C=N/Nc2cc(C)nc3cc4c(cc23)OCO4)cc1", 77.5),
    ("Cc1cc(N/N=C/c2ccc([S+](C)[O-])cc2)c2cc3c(cc2n1)OCO3 (stereo not given)", 92.4),
    ("Cc1cc(N/N=C/c2ccc(C=O)cc2)c2cc3c(cc2n1)OCO3", 86.5),
    ("Cc1cc(N/N=C/c2ccc(NS(C)(=O)=O)cc2)c2cc3c(cc2n1)OCO3", 72.2),
    ("Cc1cc(N/N=C/c2ccc(F)cc2)c2cc3c(cc2n1)OCO3", 97),
    ("Cc1cc(N/N=C/c2ccc(Cl)cc2)c2cc3c(cc2n1)OCO3", 77.9),
    ("Cc1cc(N/N=C/c2ccc(C#N)cc2)c2ccccc2n1", 85),
    ("Cc1cc(N/N=C/c2ccc(S(C)(=O)=O)cc2)c2cc3c(cc2n1)OCO3", 76.4),
    ("Cc1cc(N/N=C/c2ccc(Br)cc2)c2cc3c(cc2n1)OCO3", 78.2),
    ("Cc1cc(N/N=C/c2ccc(C(=O)O)cc2)c2cc3c(cc2n1)OCO3", 75.5),
]

====

- SUBJECT OF TEST: Subtilisin-like protease 1 (Plasmodium falciparum)
- EXPERIMENT SUMMARY: Inhibition of Plasmodium falciparum SUB1 assessed as residual hydrolytic activity at 50 uM by fluorimetric assay
RECORDED ENDPOINT: Activity (%)

Solved entries:
# MOL, SUBJECT OF TEST, Activity / %
measured = [
    ("O=[N+]([O-])c1ccc(/C=N/Nc2ccnc3ccccc23)cc1", "Subtilisin-like protease 1 (Plasmodium falciparum)", 80.6),
    ("COc1ccc2nc(C)cc(N/N=C/c3ccc([N+](=O)[O-])cc3)c2c1", "Subtilisin-like protease 1 (Plasmodium falciparum)", 12.3),
    ("Cc1cc(N/N=C/c2ccc(C(F)(F)F)cc2C(F)(F)F)c2cc3c(cc2n1)OCO3", "Subtilisin-like protease 1 (Plasmodium falciparum)", 62.1),
    ("CCOC(OCC)c1ccc(/C=N/Nc2cc(C)nc3cc4c(cc23)OCO4)cc1", "Subtilisin-like protease 1 (Plasmodium falciparum)", 75.6),
    ("N#Cc1ccc(/C=N/Nc2c3c(nc4ccccc24)CCCC3)cc1", "Subtilisin-like protease 1 (Plasmodium falciparum)", 81.5),
]

a. N#Cc1ccc(/C=N/Nc2ccnc3ccccc23)cc1
b. Cc1cc(N/N=C/c2ccccc2[N+](=O)[O-])c2cc3c(cc2n1)OCO3
Between a and b , which one shows the larger Activity value? Respond using the label that marks the chosen record.
a
